studySystem: human 17βHSD type 5 (Homo sapiens, UniProt P42330)
Construct: A full-length cDNA encoding human 17βHSD type 5 used in the pharmacological test of the present invention
Sequence (P42330 whole entry): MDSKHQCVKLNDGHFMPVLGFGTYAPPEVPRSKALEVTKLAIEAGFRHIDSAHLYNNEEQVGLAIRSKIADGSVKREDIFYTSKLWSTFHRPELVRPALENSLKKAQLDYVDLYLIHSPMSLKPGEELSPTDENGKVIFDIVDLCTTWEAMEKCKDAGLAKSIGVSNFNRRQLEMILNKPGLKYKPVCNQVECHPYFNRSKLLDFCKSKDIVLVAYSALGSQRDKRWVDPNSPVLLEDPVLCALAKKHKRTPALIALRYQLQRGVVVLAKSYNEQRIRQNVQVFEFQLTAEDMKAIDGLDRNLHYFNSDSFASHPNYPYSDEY
testSummary: Measurement of enzyme activity of human 17βHSD type 5 (testosterone production from androstenedione, DELFIA)
conditionSet: purified enzyme 10 μg/mL, androstenedione 300 nM, NADPH 200 μM, pH 6.0, room temperature, 2 hours
Method: A full-length cDNA encoding human 17βHSD type 5 used in the pharmacological test of the present invention was obtained by the PCR method using a cDNA derived from a human lung cancer-derived cell line, A549 cells as a template. […] Escherichia coli BL21 was transformed with a plasmid containing the cDNA and cultured on a large scale. […] The measurement was performed in accordance with the attached instructions. […] Then, IC50 values were calculated by the Logistic regression method.
resultType: IC50 (nM)

CC(C)(O)CC1CCN(C(=O)c2cc3cc(O)ccc3[nH]2)CC1 [Example 15]: 15

I = Cc1ccc2[nH]c(C(=O)N3CCC(CCO)CC3)cc2c1 [Example 22]
II = Cc1ccc2[nH]c(C(=O)N3CCC(CC(C)(C)O)CC3)c(C)c2c1 [Example 17]
# input Parameter metric = IC50. Return the lower-valued option from I and II . Mark your answer with the label of the selected entry.
# output I

---

resultType: melting point

Example compounds with recorded melting point:
Cc1ccc2[nH]c(C(=O)N3CCC(CC(C)(C)O)CC3)cc2c1: 149 to 150 °C
CC(O)CC1CCN(C(=O)c2cc3ccccc3[nH]2)CC1 (centres unmarked): 163 to 167 °C
CC(C)(O)CC1CCN(C(=O)c2cc3cc(O)ccc3[nH]2)CC1: 212 to 219 °C

# input Report measured melting point; entry is "Cc1ccc2[nH]c(C(=O)N3CCC(CC(C)(C)O)CC3)c(C)c2c1"
# output 166 to 168 °C

# input Report measured melting point; entry is "CC(C)(O)CC1CCN(C(=O)c2cc3cc([N+](=O)[O-])ccc3[nH]2)CC1"
# output 223 to 225 °C

# input Report measured melting point; entry is "CC(C)(O)CC1CCN(C(=O)c2cc3ccccc3[nH]2)CC1"
# output 153 to 163 °C

# input Report measured melting point; entry is "Cc1ccc2[nH]c(C(=O)N3CCC(CCO)CC3)cc2c1"
# output 163 to 165 °C

# input Report measured melting point; entry is "CC(C)(O)CC1CCN(C(=O)c2cc3cc(Cl)ccc3[nH]2)CC1"
# output 178 to 180 °C
